Test system: NIH/3T3 mouse embryonic fibroblast cell line
Assay: MTT cytotoxicity test in NIH/3T3 cell line
Type: cell-based
Details: Mus musculus; MTT, NIH3T3 fibroblast cells
Quick reference: pIC50 of the listed items.
Scale for pIC50: -log10 of concentration given in mol/L; no unit attached.

INSERT INTO assay_data (molecule, measured_on, metric_name, obs_value) VALUES
  ('CC(=NN=c1scc(-c2ccc(C#N)cc2)n1C)c1ccc(N2CCCCC2)cc1 [D1f]', 'NIH/3T3 mouse embryonic fibroblast cell line', 'pIC50', 5.48);

Kindly review the next molecule as well.
q: Entry CC(=NN=c1scc(-c2ccc([N+](=O)[O-])cc2)n1C)c1ccc(N2CCCCC2)cc1 [D1c] has what pIC50?
a: 5.62

###

Target: BChE enzyme (Homo sapiens, UniProt P06276)
Sequence (P06276 29-602, species assumed): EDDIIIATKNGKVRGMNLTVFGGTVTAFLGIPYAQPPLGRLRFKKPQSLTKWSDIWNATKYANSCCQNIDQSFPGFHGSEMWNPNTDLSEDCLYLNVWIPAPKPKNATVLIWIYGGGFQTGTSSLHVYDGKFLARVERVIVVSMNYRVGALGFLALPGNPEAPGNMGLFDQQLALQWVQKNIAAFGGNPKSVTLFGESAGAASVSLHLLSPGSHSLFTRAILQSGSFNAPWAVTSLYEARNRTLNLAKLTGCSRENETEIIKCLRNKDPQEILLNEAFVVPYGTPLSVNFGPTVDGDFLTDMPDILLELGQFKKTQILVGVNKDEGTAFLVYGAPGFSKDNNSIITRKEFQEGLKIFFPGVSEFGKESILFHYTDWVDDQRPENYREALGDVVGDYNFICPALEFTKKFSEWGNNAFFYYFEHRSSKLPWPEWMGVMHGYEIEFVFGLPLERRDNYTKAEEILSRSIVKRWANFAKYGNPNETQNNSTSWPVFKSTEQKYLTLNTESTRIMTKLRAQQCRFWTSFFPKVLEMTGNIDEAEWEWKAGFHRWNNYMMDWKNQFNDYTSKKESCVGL
Assay: biochemical
Conditions: read-out: BChE% inhibition 10^−4 M
Metric name: inhibition at 100 µM (%)
Answer format: numeric, % implied, no suffix.

INSERT INTO measurements (entry_smiles, obs_value) VALUES
  ('CC(=NN=c1scc(-c2ccc([N+](=O)[O-])cc2)n1C)c1ccc(N2CCCCC2)cc1', 21.6),
  ('CC(=NN=c1scc(-c2ccc(Cl)c(Cl)c2)n1C)c1ccc(N2CCCCC2)cc1', 24.3);

q: Field: inhibition at 100 µM (BChE enzyme (Homo sapiens, UniProt P06276)). Entry: CCn1c(-c2ccc(C)cc2C)csc1=NN=C(C)c1ccc(N2CCCCC2)cc1
a: 24.1

q: Okay, and CC(=NN=c1scc(-c2ccc(Cl)cc2)n1C)c1ccc(N2CCCCC2)cc1 ?
a: 15.2

q: Okay, and C=CCn1c(-c2ccc(C)cc2C)csc1=N/N=C(\C)c1ccc(N2CCCCC2)cc1 ?
a: 28.7

###

Biological target: BChE enzyme (Homo sapiens)
Test: biochemical
Settings: read-out: BChE% inhibition 10^−4 M
Metric name: inhibition at 100 µM (%)
Answer format: numeric, % implied, no suffix.

As a guide, the following entries are already answered.
INSERT INTO measurements (compound, metric_name, obs_value) VALUES
  ('C=CCn1c(-c2ccc([N+](=O)[O-])cc2)csc1=NN=C(C)c1ccc(N2CCCCC2)cc1 [D2c]', 'inhibition at 100 µM', 30.7),
  ('CCn1c(-c2ccc(F)cc2)csc1=NN=C(C)c1ccc(N2CCCCC2)cc1 [D3b]', 'inhibition at 100 µM', 22.6);

Kindly review the next compound as well.
q: Entry CCn1c(-c2ccc(Cl)cc2Cl)csc1=NN=C(C)c1ccc(N2CCCCC2)cc1 [D3g] has what inhibition at 100 µM?
a: 26.8

###

Target: BChE enzyme (Homo sapiens, UniProt P06276)
Test: biochemical
Details: read-out: BChE% inhibition 10^−3 M
Description: The assay was completed in two steps. The potential inhibitory effects of the obtained molecules on the AChE and BChE enzymes was examined using a variation of the Ellman method.[31,33,41–43] […] The “BioTek-Synergy H1 Microplate Reader (United States)” was employed to establish and follow the enzyme protocol for spectrophotometric measurements. […]
Metric name: inhibition at 1000 µM (%)
Answer format: numeric, % implied, no suffix.

INSERT INTO results (entry_smiles, measured_on, obs_value) VALUES
  ('C=CCn1c(-c2ccc(Cl)cc2Cl)csc1=NN=C(C)c1ccc(N2CCCCC2)cc1', 'BChE enzyme (Homo sapiens, UniProt P06276)', 29.3),
  ('CCn1c(-c2ccc(C#N)cc2)csc1=NN=C(C)c1ccc(N2CCCCC2)cc1', 'BChE enzyme (Homo sapiens, UniProt P06276)', 30.2),
  ('C=CCn1c(-c2ccc(C#N)cc2)csc1=NN=C(C)c1ccc(N2CCCCC2)cc1', 'BChE enzyme (Homo sapiens, UniProt P06276)', 21.9),
  ('C=CCn1c(-c2ccc(C)cc2)csc1=NN=C(C)c1ccc(N2CCCCC2)cc1', 'BChE enzyme (Homo sapiens, UniProt P06276)', 30.8),
  ('CCn1c(-c2ccc(OC)cc2)csc1=NN=C(C)c1ccc(N2CCCCC2)cc1', 'BChE enzyme (Homo sapiens, UniProt P06276)', 36.3);

q: Entry CCn1c(-c2ccc(C)cc2C)csc1=NN=C(C)c1ccc(N2CCCCC2)cc1 has what inhibition at 1000 µM?
a: 31.5

q: Okay, and CC(=NN=c1scc(-c2ccc(C#N)cc2)n1C)c1ccc(N2CCCCC2)cc1 ?
a: 29

q: Okay, and CC(=NN=c1scc(-c2ccc([N+](=O)[O-])cc2)n1C)c1ccc(N2CCCCC2)cc1 ?
a: 24.4

q: Okay, and CCn1c(-c2ccc(Cl)cc2Cl)csc1=NN=C(C)c1ccc(N2CCCCC2)cc1 ?
a: 33.5

q: Okay, and C=CCn1c(-c2ccc(OC)cc2)csc1=NN=C(C)c1ccc(N2CCCCC2)cc1 ?
a: 25.7

q: Okay, and CC(=NN=c1scc(-c2ccc(F)cc2)n1C)c1ccc(N2CCCCC2)cc1 ?
a: 30.2

Taken from paper PMC12637020.
